Molecular target: TrkA Kinase (Homo sapiens, UniProt P04629)
Construct: purchased Millipore (KinaseProfiler Service); also Reaction Biology Corp. (Kinase HotSpot)
Sequence (P04629 33-796): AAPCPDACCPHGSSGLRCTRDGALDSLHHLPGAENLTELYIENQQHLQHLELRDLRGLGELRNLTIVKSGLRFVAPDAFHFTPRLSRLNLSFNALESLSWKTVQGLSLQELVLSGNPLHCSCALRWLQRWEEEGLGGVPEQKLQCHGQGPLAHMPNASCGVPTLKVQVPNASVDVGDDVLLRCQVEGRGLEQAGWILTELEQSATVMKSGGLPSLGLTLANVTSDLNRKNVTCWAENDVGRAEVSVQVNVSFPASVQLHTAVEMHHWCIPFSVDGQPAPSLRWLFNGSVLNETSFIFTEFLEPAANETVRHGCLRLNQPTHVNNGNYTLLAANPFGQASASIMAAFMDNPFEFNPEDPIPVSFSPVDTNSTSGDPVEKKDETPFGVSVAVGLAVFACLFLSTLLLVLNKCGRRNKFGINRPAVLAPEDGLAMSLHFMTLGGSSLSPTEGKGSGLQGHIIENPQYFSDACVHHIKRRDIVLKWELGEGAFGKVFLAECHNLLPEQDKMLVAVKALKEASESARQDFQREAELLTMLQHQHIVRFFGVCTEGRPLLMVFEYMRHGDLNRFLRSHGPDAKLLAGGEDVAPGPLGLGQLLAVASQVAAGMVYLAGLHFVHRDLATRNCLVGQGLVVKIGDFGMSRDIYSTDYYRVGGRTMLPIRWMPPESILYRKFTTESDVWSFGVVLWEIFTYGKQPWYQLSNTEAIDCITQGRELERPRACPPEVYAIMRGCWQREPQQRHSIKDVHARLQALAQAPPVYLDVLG
Experiment: TrkA kinase assay (KinaseProfiler / Kinase Hotspot)
Type: biochemical
Exercise: state measured inhibition at 1 µM for each of the compounds provided.

Input: Consider the compound CN1CCN(c2nc(Nc3cc(-c4ccco4)[nH]n3)nc(Sc3cc(Cl)cc(Cl)c3)n2)CC1 and give its measured inhibition at 1 µM.
Output: > 90%

Input: Quick one: CN1CCN(c2nc(Nc3cc(-c4ccco4)[nH]n3)nc(Sc3cccc(NC(=O)C4CC4)c3)n2)CC1
Output: > 90%

Input: Field entry: CN1CCN(c2nc(Nc3ncc(-c4cccs4)s3)nc(Sc3ccccc3)n2)CC1
Output: < 50%

Input: Input CN1CCN(c2nc(Nc3cc(-c4ccco4)[nH]n3)nc(Sc3ccc(Cl)cc3)n2)CC1
Output: > 90%
